// data source = ChEMBL document CHEMBL1140864

Test system: BGC-823
experimental protocol: Antiproliferative activity against human BGC823 cells at 10 uM after 96 hrs by MTT assay
Format: functional
condition notes: BGC-823, 96 h
Readings of inhibition at 10 µM for the listed compounds
Response body: numeric value in %, unit text excluded.

compound | uom | inhibition at 10 µM
C[C@H]1[C@H](C)CC[C@]2(C(=O)O)CC[C@]3(C)C(=CC[C@@H]4[C@@]5(C)CC[C@H](O)C(C)(C)[C@@H]5CC[C@]43C)[C@H]12 [URSOLIC ACID] | % | 10.2
COC(=O)C(Cc1ccc(O)cc1)NC(=O)[C@]12CC[C@@H](C)[C@H](C)[C@H]1C1=CC[C@@H]3[C@@]4(C)CC[C@H](OC(C)=O)C(C)(C)[C@@H]4CC[C@@]3(C)[C@]1(C)CC2 (some centres not stated) | % | 41.6
CC(=O)OCC(C)NC(=O)[C@]12CC[C@@H](C)[C@H](C)[C@H]1C1=CC[C@@H]3[C@@]4(C)CC[C@H](OC(C)=O)C(C)(C)[C@@H]4CC[C@@]3(C)[C@]1(C)CC2 (some centres not stated) | % | 56.3
CC(=O)OCc1ccccc1NC(=O)[C@]12CC[C@@H](C)[C@H](C)[C@H]1C1=CC[C@@H]3[C@@]4(C)CC[C@H](OC(C)=O)C(C)(C)[C@@H]4CC[C@@]3(C)[C@]1(C)CC2 | % | 13
CC(=O)OCCNC(=O)[C@]12CC[C@@H](C)[C@H](C)[C@H]1C1=CC[C@@H]3[C@@]4(C)CC[C@H](OC(C)=O)C(C)(C)[C@@H]4CC[C@@]3(C)[C@]1(C)CC2 | % | 42

Reported inhibition at 10 µM for COC(=O)CNC(=O)[C@]12CC[C@@H](C)[C@H](C)[C@H]1C1=CC[C@@H]3[C@@]4(C)CC[C@H](OC(C)=O)C(C)(C)[C@@H]4CC[C@@]3(C)[C@]1(C)CC2 : what is it?
17.9

Can you share its inhibition at 10 µM? I mean this compound: COC(=O)C(CO)NC(=O)[C@]12CC[C@@H](C)[C@H](C)[C@H]1C1=CC[C@@H]3[C@@]4(C)CC[C@H](OC(C)=O)C(C)(C)[C@@H]4CC[C@@]3(C)[C@]1(C)CC2 (some centres not stated)
15.7

###

Tested on: HeLa
experimental protocol: Antiproliferative activity against human HeLa cells at 10 uM after 96 hrs by MTT assay
Assay type: functional
result type: inhibition at 10 µM (%)
Give just the numeric value; % need not be written.

These solved cases illustrate the format of a correct answer.
compound | inhibition at 10 µM [%]
CCC(C)C(NC(=O)[C@]12CC[C@@H](C)[C@H](C)[C@H]1C1=CC[C@@H]3[C@@]4(C)CC[C@H](OC(C)=O)C(C)(C)[C@@H]4CC[C@@]3(C)[C@]1(C)CC2)C(=O)OC (some centres not stated) | 15.9
CC(=O)O[C@H]1CC[C@]2(C)[C@H]3CC=C4[C@@H]5[C@@H](C)[C@H](C)CC[C@]5(C(=O)O)CC[C@@]4(C)[C@]3(C)CC[C@H]2C1(C)C | 37.8
CC(=O)OCC(C)NC(=O)[C@]12CC[C@@H](C)[C@H](C)[C@H]1C1=CC[C@@H]3[C@@]4(C)CC[C@H](OC(C)=O)C(C)(C)[C@@H]4CC[C@@]3(C)[C@]1(C)CC2 (some centres not stated) | 69.3
COC(=O)CNC(=O)[C@]12CC[C@@H](C)[C@H](C)[C@H]1C1=CC[C@@H]3[C@@]4(C)CC[C@H](OC(C)=O)C(C)(C)[C@@H]4CC[C@@]3(C)[C@]1(C)CC2 | 61.7

Requested field: inhibition at 10 µM. Item: COC(=O)C(Cc1ccc(O)cc1)NC(=O)[C@]12CC[C@@H](C)[C@H](C)[C@H]1C1=CC[C@@H]3[C@@]4(C)CC[C@H](OC(C)=O)C(C)(C)[C@@H]4CC[C@@]3(C)[C@]1(C)CC2 (some centres not stated)
51.5

# get_value(readout='inhibition at 10 µM', item= C[C@H]1[C@H](C)CC[C@]2(C(=O)NC(Cc3ccccc3)C(=O)O)CC[C@]3(C)C(=CC[C@@H]4[C@@]5(C)CC[C@H](O)C(C)(C)[C@@H]5CC[C@]43C)[C@H]12 (some centres not stated) )
27.5

Please report the recorded inhibition at 10 µM for CC(O)C(NC(=O)[C@]12CC[C@@H](C)[C@H](C)[C@H]1C1=CC[C@@H]3[C@@]4(C)CC[C@H](O)C(C)(C)[C@@H]4CC[C@@]3(C)[C@]1(C)CC2)C(=O)O (some centres not stated) .
22
